Molecular target: E. coli threonine deaminase (ilvA) variant L481E, SEQ ID NO: 7 (Escherichia coli, UniProt P04968, A120R/A140R/G195C/G334V/L481E/V121L)
Construct: made in house; host or cells: E. coli (pSE380, crude extract)
Sequence (P04968 whole entry A120R/V121L/A140R/G195C/G334V/L481E): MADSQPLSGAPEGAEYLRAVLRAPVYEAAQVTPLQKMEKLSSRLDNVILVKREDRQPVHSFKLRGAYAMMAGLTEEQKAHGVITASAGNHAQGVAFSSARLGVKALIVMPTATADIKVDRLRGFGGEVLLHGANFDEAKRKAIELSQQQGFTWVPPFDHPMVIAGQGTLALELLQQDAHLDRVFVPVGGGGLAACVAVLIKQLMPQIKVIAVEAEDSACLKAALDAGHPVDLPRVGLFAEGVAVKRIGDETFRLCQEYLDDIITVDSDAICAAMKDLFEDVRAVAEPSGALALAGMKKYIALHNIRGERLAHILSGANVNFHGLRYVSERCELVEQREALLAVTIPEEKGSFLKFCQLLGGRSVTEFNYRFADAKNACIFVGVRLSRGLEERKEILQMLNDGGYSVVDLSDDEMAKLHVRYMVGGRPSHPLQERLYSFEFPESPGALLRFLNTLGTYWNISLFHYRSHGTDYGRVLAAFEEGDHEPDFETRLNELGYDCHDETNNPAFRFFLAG
Assay: Threonine deaminase steady state kinetics, L481E
Assay type: biochemical
recorded-metric: pIC50
For clarity, pIC50 is expressed as the negative log10 of concentration in mol/L.

Exam item: Give a short answer stating reported pIC50 for `CC[C@H](C)[C@H](N)C(=O)O` .
Marked response: 3.35

---

Molecular target: E. coli threonine deaminase (ilvA) variant L481I, SEQ ID NO: 10 (Escherichia coli, UniProt P04968, A120R/A140R/G195C/G334V/L481I/V121L)
Sequence (P04968 whole entry A120R/V121L/A140R/G195C/G334V/L481I): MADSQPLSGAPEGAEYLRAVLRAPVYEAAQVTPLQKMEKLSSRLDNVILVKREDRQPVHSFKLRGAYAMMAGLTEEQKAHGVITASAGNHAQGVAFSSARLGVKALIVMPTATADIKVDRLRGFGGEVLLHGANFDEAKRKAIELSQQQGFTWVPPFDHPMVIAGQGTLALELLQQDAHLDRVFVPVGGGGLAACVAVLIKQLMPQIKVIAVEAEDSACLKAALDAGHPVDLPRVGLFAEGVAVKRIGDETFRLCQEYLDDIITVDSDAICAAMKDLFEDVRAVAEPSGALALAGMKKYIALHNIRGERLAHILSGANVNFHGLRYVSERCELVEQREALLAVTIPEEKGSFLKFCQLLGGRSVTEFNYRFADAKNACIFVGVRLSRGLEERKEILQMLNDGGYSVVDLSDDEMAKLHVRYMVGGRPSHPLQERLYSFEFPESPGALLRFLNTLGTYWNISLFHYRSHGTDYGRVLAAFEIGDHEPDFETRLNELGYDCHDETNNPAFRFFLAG
Assay: Threonine deaminase steady state kinetics, L481I
recorded-metric: IC50
In your response, the unit should come after the numeric value.

Exam item: Assign IC50 to the following record: CC[C@H](C)[C@H](N)C(=O)O [L-isoleucine]
Marked response: 134 µM

---

Target: E. coli threonine deaminase (ilvA) variant L481F (ilvA466), SEQ ID NO: 4 (Escherichia coli, UniProt P04968, A120R/A140R/G195C/G334V/L481F/V121L)
Sequence (P04968 whole entry A120R/V121L/A140R/G195C/G334V/L481F): as the sequence (P04968 whole entry A120R/V121L/A140R/G195C/G334V/L481E) above, with E481F counted along it
Experiment: biochemical
recorded-metric: pIC50
Just the number, please; pIC50 means minus log10 of the concentration in mol/L.

Exam item: Note pIC50 for the molecule shown: CC[C@H](C)[C@H](N)C(=O)O [L-isoleucine]
Marked response: 3.10

---

Target: E. coli threonine deaminase (ilvA), wild type, SEQ ID NO: 2 (Escherichia coli, UniProt P04968, A120R/A140R/G195C/G334V/V121L)
Construct: made in house; host or cells: E. coli (crude extract)
Sequence (P04968 whole entry A120R/V121L/A140R/G195C/G334V): as the sequence (P04968 whole entry A120R/V121L/A140R/G195C/G334V/L481E) above, with E481L counted along it
Assay: Threonine deaminase steady state kinetics, E. coli wild type
Type: biochemical
recorded-metric: IC50 (µM)
The reply should be a number in µM, with the unit left off.

Exam item: Provide only the value of recorded IC50 for `CC[C@H](C)[C@H](N)C(=O)O`
Marked response: 56

---

Biological target: E. coli threonine deaminase (ilvA) variant L447F (ilvA219), SEQ ID NO: 3 (Escherichia coli, UniProt P04968, A120R/A140R/G195C/G334V/L447F/V121L)
Sequence (P04968 whole entry A120R/V121L/A140R/G195C/G334V/L447F): as the sequence (P04968 whole entry A120R/V121L/A140R/G195C/G334V/L481E) above, with L447F, E481L counted along it
Test: Threonine deaminase steady state kinetics, L447F (ilvA219)
recorded-metric: IC50

Exam item: // fetch IC50 given entry CC[C@H](C)[C@H](N)C(=O)O [L-isoleucine]
Marked response: > 20 mM

---

Target: E. coli threonine deaminase (ilvA) variant L481P, SEQ ID NO: 6 (Escherichia coli, UniProt P04968, A120R/A140R/G195C/G334V/L481P/V121L)
Construct: made in house; host or cells: E. coli (pSE380, crude extract)
Sequence (P04968 whole entry A120R/V121L/A140R/G195C/G334V/L481P): as the sequence (P04968 whole entry A120R/V121L/A140R/G195C/G334V/L481I) above, with I481P counted along it
Assay: Threonine deaminase steady state kinetics, L481P
Type: biochemical
recorded-metric: IC50 (µM)
Give the number; µM is assumed, so skip it.

Exam item: Return value of IC50 for input `CC[C@H](C)[C@H](N)C(=O)O` , no commentary.
Marked response: 650

---

Molecular target: E. coli threonine deaminase (ilvA) variant L481T, SEQ ID NO: 8 (Escherichia coli, UniProt P04968, A120R/A140R/G195C/G334V/L481T/V121L)
Sequence (P04968 whole entry A120R/V121L/A140R/G195C/G334V/L481T): as the sequence (P04968 whole entry A120R/V121L/A140R/G195C/G334V/L481E) above, with E481T counted along it
Assay: Threonine deaminase steady state kinetics, L481T
recorded-metric: IC50 (µM)
Write the answer as a number in µM, unit excluded.

Exam item: Give reported IC50 value for `CC[C@H](C)[C@H](N)C(=O)O`
Marked response: 449
